stated-conditions: in acetonitrile, 313.15 K
readout-kind: solubility (mole fraction)
One number for each entry.

Query C[C@H]1COc2c(N3CCN(C)CC3)c(F)c(N)c3c(=O)c(C(=O)O)cn1c23.Cl yields solubility (mole fraction) of 6.9e-06

---

stated-conditions: in acetonitrile, 308.15 K
readout-kind: solubility (mole fraction)
Answers are plain numbers.

Query C[C@H]1COc2c(N3CCN(C)CC3)c(F)c(N)c3c(=O)c(C(=O)O)cn1c23.Cl yields solubility (mole fraction) of 6.07e-06

---

stated-conditions: in ethanol, 288.15 K
readout-kind: solubility (mole fraction)

Query C[C@H]1COc2c(N3CCN(C)CC3)c(F)c(N)c3c(=O)c(C(=O)O)cn1c23.Cl yields solubility (mole fraction) of 1.39e-05

# credit: BigSolDB 2.1
